study.system: human AR (androgen receptor) (Homo sapiens)
Construct: expressed in transfected cells; host or cells: 293 cells (293-AR lysate)
procedure.details: Steroid hormone nuclear receptor binding assay, AR binding
Recorded Ki values for a group of compounds are listed next.
Please state the figure in nM; there is no need to write the unit.

Some solved entries appear below for comparison.
[
  {
    "compound": "CC(C)C(=O)NC1CCc2c(c3cc(Cl)ccc3n2Cc2cccc(Br)c2)C1 (stereo not shown) [Example 81]",
    "Ki (nM)": 11.3
  },
  {
    "compound": "CC(C)C(=O)NC1CCc2c(c3cc(F)ccc3n2Cc2cccc(Cl)c2)C1 (stereo not shown) [Example 9]",
    "Ki (nM)": 7.2
  },
  {
    "compound": "CC(C)C(=O)N[C@H]1CCc2c(c3cc(C#N)ccc3n2Cc2cccc(F)c2)C1 [Example 124]",
    "Ki (nM)": 195
  }
]

Query: Using the record for CC(C)C(=O)NC1CCc2c(c3cc(C#N)ccc3n2Cc2cccc(Br)c2)C1 (stereo not shown) [Example 86] , report its Ki.
Result: 2.6

====

Recorded pEC50 values for a group of compounds are listed next.
study.system: human androgen receptor (AR) (Homo sapiens, UniProt P10275)
Construct: expressed in transfected cells; host or cells: mouse myoblast C2C12 cells, transiently co-transfected
procedure.details: C2C12 AR/ARE reporter assay
Assay type: cell-based
Recall that pEC50 is obtained by taking minus log10 of the concentration measured in molar.

[
  {
    "compound": "CC(C)C(=O)NC1CCc2c(c3cc(C#N)ccc3n2Cc2csc(Cl)n2)C1 (centres unmarked)",
    "pEC50": 7.71
  }
]

Kindly review the next compound as well.
Query: Identify the measured pEC50 of Cc1nc(Cn2c3c(c4cc(C=O)ccc42)C[C@H](NC(=O)C(C)C)CC3)cs1 for human androgen receptor (AR) (Homo sapiens, UniProt P10275).
Result: 7.06

====

study.system: human AR (androgen receptor) (Homo sapiens, UniProt P10275)
Construct: expressed in transfected cells; host or cells: 293 cells (293-AR lysate)
procedure.details: Steroid hormone nuclear receptor binding assay, AR binding
Protocol: Cell lysates from 293 cells overexpressing human GR (glucocorticoid receptor), AR (androgen receptor), MR (mineralocorticoid receptor) or PR (progesterone receptor) are used for competition binding assays to determine Ki values for test compounds. […] Non-specific binding is determined in the presence of 500 nM dexamethasone for GR binding, 500 nM aldosterone for MR binding, or 500 nM methyltrienolone for AR and PR binding. […]
Recorded pKi values for a group of compounds are listed next.
Recall that pKi is obtained by taking minus log10 of the concentration measured in molar.

Query: Using the record for COc1ccc2c3c(n(Cc4ccccc4)c2c1)CCC(NC(=O)C(C)C)C3 (stereo not shown) , report its pKi.
Result: 6.99

Query: Using the record for CC(C)C(=O)N[C@@H]1CCc2c(c3cc(C#N)ccc3n2Cc2cccc(F)c2)C1 (single isomer, unassigned) , report its pKi.
Result: 9.00

Query: Using the record for CC(C)C(=O)NC1CCc2c(c3cc(-c4cnc(N)s4)ccc3n2Cc2cccc(F)c2)C1 (stereo not shown) , report its pKi.
Result: 7.54

Query: Using the record for CC(C)C(=O)NC1CCc2c(c3cc(F)ccc3n2Cc2cccc(F)c2)C1 (stereo not shown) , report its pKi.
Result: 8.60

Query: Using the record for COC(=O)c1ccc2c(c1)c1c(n2Cc2cccc(F)c2)CC[C@@H](NC(=O)C(C)C)C1 , report its pKi.
Result: 8.64

Query: Using the record for CC(C)C(=O)NC1CCc2c(c3cc(C#N)ccc3n2Cc2ccccn2)C1 (stereo not shown) , report its pKi.
Result: 7.90

====

study.system: human androgen receptor (AR) (Homo sapiens, UniProt P10275)
Construct: expressed in transfected cells; host or cells: mouse myoblast C2C12 cells, transiently co-transfected
Sequence (P10275 1-920): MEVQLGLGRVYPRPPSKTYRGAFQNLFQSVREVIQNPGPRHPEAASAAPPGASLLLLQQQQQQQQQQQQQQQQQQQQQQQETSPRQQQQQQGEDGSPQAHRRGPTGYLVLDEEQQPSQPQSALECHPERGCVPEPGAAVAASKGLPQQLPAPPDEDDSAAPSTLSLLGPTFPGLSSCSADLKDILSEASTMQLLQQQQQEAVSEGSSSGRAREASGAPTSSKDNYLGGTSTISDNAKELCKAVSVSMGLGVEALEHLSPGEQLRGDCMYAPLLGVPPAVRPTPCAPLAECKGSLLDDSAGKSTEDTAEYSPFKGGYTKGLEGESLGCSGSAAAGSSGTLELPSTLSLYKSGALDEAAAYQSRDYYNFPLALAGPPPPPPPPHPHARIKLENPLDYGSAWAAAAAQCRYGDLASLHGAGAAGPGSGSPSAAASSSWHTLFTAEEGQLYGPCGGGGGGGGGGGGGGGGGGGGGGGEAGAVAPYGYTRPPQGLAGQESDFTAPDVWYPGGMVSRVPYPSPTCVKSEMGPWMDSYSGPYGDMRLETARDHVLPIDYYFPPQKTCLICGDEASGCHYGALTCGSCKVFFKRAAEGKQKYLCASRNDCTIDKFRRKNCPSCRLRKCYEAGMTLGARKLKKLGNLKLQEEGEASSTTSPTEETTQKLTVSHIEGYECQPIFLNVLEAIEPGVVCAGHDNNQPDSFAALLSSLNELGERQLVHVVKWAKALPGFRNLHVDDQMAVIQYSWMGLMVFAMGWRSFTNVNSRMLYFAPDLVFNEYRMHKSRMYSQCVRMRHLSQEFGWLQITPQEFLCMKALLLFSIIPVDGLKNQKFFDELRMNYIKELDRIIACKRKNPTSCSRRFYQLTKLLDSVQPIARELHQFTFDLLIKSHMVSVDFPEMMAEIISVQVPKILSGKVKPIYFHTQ
procedure.details: C2C12 AR/ARE reporter assay
Assay type: cell-based
conditions: C2C12, read-out: C2C12 % Efficacy
Description: As an indicator of agonist activity in muscle tissue, the C2C12 AR/ARE reporter assay is performed. Briefly, mouse myoblast C2C12 cells are co-transfected using FuGENE™. […] Cells are transfected in T150 cm^2 flasks in DMEM media with 4% or 10% Fetal Bovine Serum (PBS). […] After 48 h of incubations with compounds, cells are lysed and luciferase activity is determined using standard techniques. […] The % efficacy is determined versus maximum stimulation obtained with 10 nM methyltrienolone. […]
Define the label as Yes when Emax is strictly less than 80% and as No in all remaining cases.

[
  {
    "compound": "CC(C)C(=O)NC1CCc2c(c3cc(C#N)ccc3n2Cc2cccc([N+](=O)[O-])c2)C1 (centres unmarked) [Example 88]",
    "group": "No"
  },
  {
    "compound": "CC(C)C(=O)NC1CCc2c(c3cc(C#N)ccc3n2Cc2cccc(F)c2)C1 (centres unmarked) [Example 51]",
    "group": "No"
  },
  {
    "compound": "CC(C)C(=O)NC1CCc2c(c3cc(C#N)ccc3n2Cc2ccccn2)C1 (centres unmarked) [Example 146]",
    "group": "No"
  },
  {
    "compound": "CO/N=C/c1ccc2c(c1)c1c(n2Cc2cccc(F)c2)CC[C@@H](NC(=O)C2CC2)C1 [Example 205]",
    "group": "No"
  },
  {
    "compound": "CC(C)C(=O)NC1CCc2c(c3cc(C#N)ccc3n2Cc2cccc(N)c2)C1 (centres unmarked) [Example 90]",
    "group": "Yes"
  },
  {
    "compound": "CC(C)C(=O)NC1CCc2c(c3c(Cl)c(C#N)ccc3n2Cc2cccc(F)c2)C1 (centres unmarked) [Example 117]",
    "group": "Yes"
  }
]

Now for a further compound.
Query: In the record for CC(C)C(=O)NC1CCc2c(c3cc(Cl)ccc3n2Cc2cccc(O)c2)C1 (centres unmarked) [Example 102] , is Emax less than 80%?
Result: Yes

====

study.system: human AR (androgen receptor) (Homo sapiens, UniProt P10275)
Construct: expressed in transfected cells; host or cells: 293 cells (293-AR lysate)
procedure.details: Steroid hormone nuclear receptor binding assay, AR binding
Method: Cell lysates from 293 cells overexpressing human GR (glucocorticoid receptor), AR (androgen receptor), MR (mineralocorticoid receptor) or PR (progesterone receptor) are used for competition binding assays to determine Ki values for test compounds. […] Non-specific binding is determined in the presence of 500 nM dexamethasone for GR binding, 500 nM aldosterone for MR binding, or 500 nM methyltrienolone for AR and PR binding. […]
quantity.kind: pKi
Recall that pKi is obtained by taking minus log10 of the concentration measured in molar.

Some solved entries appear below for comparison.
[
  {
    "molecule": "CC(C)C(=O)NC1CCc2c(c3cc([N+](=O)[O-])ccc3n2Cc2cccc(F)c2)C1 (centres unmarked) [Example 61]",
    "pKi": 8.64
  },
  {
    "molecule": "CC(C)C(=O)NC1CCc2c(c3cc(C#N)ccc3n2Cc2cccc(N)c2)C1 (centres unmarked) [Example 90]",
    "pKi": 7.52
  },
  {
    "molecule": "CC(C)C(=O)NC1CCc2c(c3cc(Cl)ccc3n2Cc2cccc(O)c2)C1 (centres unmarked) [Example 102]",
    "pKi": 7.77
  },
  {
    "molecule": "CN(C)C(=O)NC1CCc2c(c3cc(Br)ccc3n2Cc2cccc(F)c2)C1 (centres unmarked) [Example 176]",
    "pKi": 8.11
  },
  {
    "molecule": "CC(C)C(=O)NC1CCc2c(c3cc(Cl)ccc3n2Cc2ccc(Cl)cc2)C1 (centres unmarked) [Example 26]",
    "pKi": 7.78
  },
  {
    "molecule": "Cc1ccc2c(c1)c1c(n2Cc2ccccc2F)CCC(NC(=O)C(C)C)C1 (centres unmarked) [Example 43]",
    "pKi": 6.98
  },
  {
    "molecule": "CC(C)C(=O)NC1CCc2c(c3cc(Br)ccc3n2Cc2ccc(Cl)cc2)C1 (centres unmarked) [Example 40]",
    "pKi": 7.51
  }
]

Kindly review the next molecule as well.
Query: Using the record for CC(C)C(=O)NC1CCc2c(c3cc(Cl)ccc3n2Cc2cccc(C(F)(F)F)c2)C1 (centres unmarked) [Example 83] , report its pKi.
Result: 7.53
